# Tested on: PPARg DBDmut:RXRa IVT, anti-PPARg (DBD mutation: PPARg1 K132A/R137A, NR concentration 270 nM, RXRa partner concentration 90 nM)
# Run description: PBM binding z-score (relative to random genomic background probes); higher = stronger binding; sequences stand for … in GC…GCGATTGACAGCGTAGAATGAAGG
PBM binding z-score below 0.002 gives not fulfilled; PBM binding z-score at or above it gives fulfilled.

Query block: I'd appreciate it if you could say whether `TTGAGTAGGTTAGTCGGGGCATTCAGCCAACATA` has PBM binding z-score at least equal to 0.002.
Result block: fulfilled

Query block: I'd appreciate it if you could say whether `TCTAGTTGGTCAAAGGTCATACACTCGAAATGCG` has PBM binding z-score at least equal to 0.002.
Result block: fulfilled

Query block: I'd appreciate it if you could say whether `ACAGACAAGTGAGTGAAGGTAACTCAGCTGGACG` has PBM binding z-score at least equal to 0.002.
Result block: fulfilled

Query block: I'd appreciate it if you could say whether `ATCTCTAGGTAACCAAGTTCAGTAAATGCCGAAC` has PBM binding z-score at least equal to 0.002.
Result block: fulfilled

Query block: I'd appreciate it if you could say whether `TTAGCAAGGTGAAAGGTCGTTGATGCACGCCTTG` has PBM binding z-score at least equal to 0.002.
Result block: fulfilled

Query block: I'd appreciate it if you could say whether `GCTCGGAGGACAAGGTCAGAGCCTTGTCCGTAGA` has PBM binding z-score at least equal to 0.002.
Result block: not fulfilled

Query block: I'd appreciate it if you could say whether `TCGCGGAGGACACGAAAGGTCAGAGCTCGACATC` has PBM binding z-score at least equal to 0.002.
Result block: fulfilled

Query block: I'd appreciate it if you could say whether `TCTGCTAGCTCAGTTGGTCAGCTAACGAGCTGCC` has PBM binding z-score at least equal to 0.002.
Result block: not fulfilled
